target_or_system: Human Tyk2 kinase domain (Homo sapiens, UniProt P29597)
Sequence (P29597 886-1187): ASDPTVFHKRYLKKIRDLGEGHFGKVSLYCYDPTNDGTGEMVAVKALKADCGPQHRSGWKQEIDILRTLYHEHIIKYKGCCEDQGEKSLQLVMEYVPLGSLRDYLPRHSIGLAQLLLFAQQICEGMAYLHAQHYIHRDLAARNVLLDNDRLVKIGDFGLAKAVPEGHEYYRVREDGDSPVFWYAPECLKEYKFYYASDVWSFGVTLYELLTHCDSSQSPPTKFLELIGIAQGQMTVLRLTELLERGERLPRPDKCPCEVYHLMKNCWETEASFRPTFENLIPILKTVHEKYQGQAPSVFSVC
Listing: IC50 of selected molecules

Solved entries:
| molecule | assay_value |
| --- | --- |
| COc1ccc(-c2cc3nccn3c(-c3cnn(C4(CC#N)CN(S(=O)(=O)C5CC5)C4)c3)n2)cc1 [Example 159] | < 10 nM |
| N#CCC(C1CC1)n1cc(-c2nc(C(=O)NC3CCC3)cc3nccn23)cn1 (centres unmarked) [Example 124] | 100 to 1000 nM |
| Cn1cc(-c2cc3nccn3c(-c3cnn(C4(CC#N)CCN(CC(F)(F)F)C4)c3)n2)cn1 (centres unmarked) [Example 135] | 10 to 100 nM |
| CC(=O)N1CC(CC#N)(n2cc(-c3nc(-c4cnn(C)c4)cc4nccn34)cn2)C1 [Example 63] | 100 to 1000 nM |
| CN1CCC(c2ccc(-c3cc4nccn4c(-c4cnn(C(CC#N)C5CCCC5)c4)n3)cc2)CC1 (centres unmarked) [Example 110] | < 10 nM |
| Cc1ncc(-c2cc3nccn3c(-c3cnn(C4(CC#N)CN(S(=O)(=O)C5CC5)C4)c3)n2)s1 [Example 140] | < 10 nM |
| Cn1cc(-c2cc3nccn3c(-c3cnn(C4(CC#N)CN(C(=O)OC(C)(C)C)C4)c3)n2)cn1 [Example 61] | 100 to 1000 nM |

**Q:** Query: IC50; subject: N#CCC1(n2cc(-c3nc(-c4cnn(C5COC5)c4)cc4nccn34)cn2)CN(CC(F)F)C1 [Example 156]
**A:** < 10 nM

---

# IC50 per entry for JAK3 (Homo sapiens)

Solved entries:
| compound | IC50 |
| --- | --- |
| COc1ccc(-c2cc3nccn3c(-c3cnn(C4(CC#N)CN(S(=O)(=O)C5CC5)C4)c3)n2)cc1 [Example 159] | > 1000 nM |
| N#CCCn1cc(-c2nc(-c3ccc(N4CCOCC4)cc3)cc3nccn23)cn1 [Example 120] | > 1000 nM |
| CN1CCN(c2ccc(-c3cc4nccn4c(-c4cnn(C5(CC#N)CN(S(=O)(=O)C(F)(F)F)C5)c4)n3)cc2)CC1 [Example 138] | 100 to 1000 nM |

Turning now to a further record.
**Q:** Query: IC50; subject: CN1CC(CC#N)(n2cc(-c3nc(-c4cnn(C)c4)cc4nccn34)cn2)C1 [Example 83]
**A:** > 1000 nM

---

target_or_system: JAK2 (Homo sapiens, UniProt O60674)
Sequence (O60674 whole entry): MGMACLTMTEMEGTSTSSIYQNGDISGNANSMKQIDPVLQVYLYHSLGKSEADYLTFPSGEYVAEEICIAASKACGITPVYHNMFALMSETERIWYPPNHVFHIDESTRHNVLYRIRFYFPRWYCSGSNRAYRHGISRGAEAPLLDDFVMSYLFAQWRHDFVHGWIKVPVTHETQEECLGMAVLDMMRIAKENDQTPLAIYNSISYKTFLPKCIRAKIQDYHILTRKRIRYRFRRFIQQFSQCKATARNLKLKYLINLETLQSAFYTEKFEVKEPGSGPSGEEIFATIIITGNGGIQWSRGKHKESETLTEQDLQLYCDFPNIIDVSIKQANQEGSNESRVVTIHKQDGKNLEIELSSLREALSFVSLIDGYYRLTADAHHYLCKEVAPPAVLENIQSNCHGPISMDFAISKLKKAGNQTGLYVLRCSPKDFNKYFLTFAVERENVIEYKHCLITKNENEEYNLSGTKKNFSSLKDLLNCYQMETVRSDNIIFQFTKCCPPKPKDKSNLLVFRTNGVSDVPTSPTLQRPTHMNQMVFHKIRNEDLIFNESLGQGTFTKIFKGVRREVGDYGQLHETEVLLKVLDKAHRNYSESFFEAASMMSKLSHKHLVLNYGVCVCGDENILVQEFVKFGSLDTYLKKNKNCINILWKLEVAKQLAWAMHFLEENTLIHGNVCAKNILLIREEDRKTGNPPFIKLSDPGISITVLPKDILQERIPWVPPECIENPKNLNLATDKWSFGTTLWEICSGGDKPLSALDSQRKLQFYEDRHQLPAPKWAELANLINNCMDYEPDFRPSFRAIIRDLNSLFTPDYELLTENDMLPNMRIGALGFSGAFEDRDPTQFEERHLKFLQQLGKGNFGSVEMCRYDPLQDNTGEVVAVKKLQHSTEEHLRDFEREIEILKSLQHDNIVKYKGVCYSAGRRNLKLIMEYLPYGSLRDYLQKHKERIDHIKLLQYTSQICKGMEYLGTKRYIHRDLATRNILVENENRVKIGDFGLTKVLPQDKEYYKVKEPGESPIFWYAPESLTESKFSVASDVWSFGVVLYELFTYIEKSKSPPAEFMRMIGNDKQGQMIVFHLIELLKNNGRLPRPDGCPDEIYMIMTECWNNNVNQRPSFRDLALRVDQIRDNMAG
Counter-ions that a name gives are not always drawn.
property_label: IC50

Solved entries:
| compound | target_or_system | assay_value |
| --- | --- | --- |
| N#CCC(C1CC1)n1cc(-c2nc(C(=O)NC3CCCCC3)cc3nccn23)cn1 (centres unmarked) [Example 123] | JAK2 (Homo sapiens, UniProt O60674) | > 1000 nM |
| Cn1cc(-c2cc3nccn3c(-c3cnn(C(CC#N)c4cccc(C(F)(F)F)c4)c3)n2)cn1 (centres unmarked) [Example 15] | JAK2 (Homo sapiens, UniProt O60674) | 10 to 100 nM |
| N#CCC(C1CC1)n1cc(-c2nc(-c3ccc4c(c3)CCNC4)cc3nccn23)cn1 (centres unmarked) [Example 52] | JAK2 (Homo sapiens, UniProt O60674) | 10 to 100 nM |
| Cn1cc(-c2cc3nccn3c(-c3ccn(C(CC#N)C4CC4)n3)n2)cn1 (centres unmarked) [Example 132] | JAK2 (Homo sapiens, UniProt O60674) | 100 to 1000 nM |
| Cn1cc(-c2cc3nccn3c(-c3ccn(C4(CC#N)CNC4)c3)n2)cn1 [Example 127, trifluoroacetate] | JAK2 (Homo sapiens, UniProt O60674) | 100 to 1000 nM |

**Q:** Query: IC50; subject: Cn1cc(-c2cc3nccn3c(-c3cnn(C4(CC#N)CN(CCF)C4)c3)n2)cn1 [Example 77]
**A:** 10 to 100 nM

**Q:** Another compound: N#CCC(C1CC1)n1cc(-c2nc(-c3cnco3)cc3nccn23)cn1 (centres unmarked) [Example 43]
**A:** 100 to 1000 nM

**Q:** Another compound: Cc1ncc(-c2cc3nccn3c(-c3cnn(C(CC#N)C4CC4)c3)n2)s1 (centres unmarked) [Example 48]
**A:** 10 to 100 nM

**Q:** Another compound: CC(CC#N)n1cc(-c2nc(-c3ccc(N4CCOCC4)cc3)cc3nccn23)cn1 (centres unmarked) [Example 118]
**A:** 10 to 100 nM

**Q:** Another compound: N#CCC(C1CC1)n1cc(-c2nc(C(=O)NC3CCC3)cc3nccn23)cn1 (centres unmarked) [Example 124]
**A:** > 1000 nM

---

# IC50 per entry for Human Tyk2 kinase domain (Homo sapiens)

Solved entries:
| compound | property_label | assay_value |
| --- | --- | --- |
| N#CCC(C1CC1)n1cc(-c2nc(-c3cnc4n3CCNC4)cc3nccn23)cn1 (centres unmarked) | IC50 | 100 to 1000 nM |
| Cn1cc(-c2cc3nccn3c(-c3cnn(C4(CC#N)CN(S(C)(=O)=O)C4)c3)n2)cn1 | IC50 | < 10 nM |
| N#CCC(C1CC1)n1cc(-c2nc(-c3ccc4c(c3)CNCC4)cc3nccn23)cn1 (centres unmarked) | IC50 | < 10 nM |
| Cn1cc(-c2cc3nccn3c(-c3cnn(C4(CC#N)CCCCC4)c3)n2)cn1 | IC50 | 10 to 100 nM |
| N#CCC(C1CCCC1)n1cc(-c2nc(-c3ccc(N4CCOCC4)cc3)cc3nccn23)cn1 (single isomer, unassigned) [Example 115] | IC50 | < 10 nM |
| N#CCC(C1CC1)n1cc(-c2nc(-c3cnn(C4COC4)c3)cc3nccn23)cn1 (centres unmarked) | IC50 | < 10 nM |

**Q:** Query: IC50; subject: C[Si](C)(C)CCOCn1cc(-c2cc3nccn3c(-c3cnn(C(CC#N)C4CC4)c3)n2)cn1 (centres unmarked)
**A:** 10 to 100 nM

**Q:** Another compound: N#CCC(C1CC1)n1cc(-c2nc(-c3ccc(N4CC5CCC(C4)O5)cc3)cc3nccn23)cn1 (centres unmarked)
**A:** < 10 nM

---

target_or_system: JAK3 (Homo sapiens, UniProt P52333)
Construct: purchased Invitrogen Corporation, Carlsbad, Calif; PV4080
Sequence (P52333 1-1124): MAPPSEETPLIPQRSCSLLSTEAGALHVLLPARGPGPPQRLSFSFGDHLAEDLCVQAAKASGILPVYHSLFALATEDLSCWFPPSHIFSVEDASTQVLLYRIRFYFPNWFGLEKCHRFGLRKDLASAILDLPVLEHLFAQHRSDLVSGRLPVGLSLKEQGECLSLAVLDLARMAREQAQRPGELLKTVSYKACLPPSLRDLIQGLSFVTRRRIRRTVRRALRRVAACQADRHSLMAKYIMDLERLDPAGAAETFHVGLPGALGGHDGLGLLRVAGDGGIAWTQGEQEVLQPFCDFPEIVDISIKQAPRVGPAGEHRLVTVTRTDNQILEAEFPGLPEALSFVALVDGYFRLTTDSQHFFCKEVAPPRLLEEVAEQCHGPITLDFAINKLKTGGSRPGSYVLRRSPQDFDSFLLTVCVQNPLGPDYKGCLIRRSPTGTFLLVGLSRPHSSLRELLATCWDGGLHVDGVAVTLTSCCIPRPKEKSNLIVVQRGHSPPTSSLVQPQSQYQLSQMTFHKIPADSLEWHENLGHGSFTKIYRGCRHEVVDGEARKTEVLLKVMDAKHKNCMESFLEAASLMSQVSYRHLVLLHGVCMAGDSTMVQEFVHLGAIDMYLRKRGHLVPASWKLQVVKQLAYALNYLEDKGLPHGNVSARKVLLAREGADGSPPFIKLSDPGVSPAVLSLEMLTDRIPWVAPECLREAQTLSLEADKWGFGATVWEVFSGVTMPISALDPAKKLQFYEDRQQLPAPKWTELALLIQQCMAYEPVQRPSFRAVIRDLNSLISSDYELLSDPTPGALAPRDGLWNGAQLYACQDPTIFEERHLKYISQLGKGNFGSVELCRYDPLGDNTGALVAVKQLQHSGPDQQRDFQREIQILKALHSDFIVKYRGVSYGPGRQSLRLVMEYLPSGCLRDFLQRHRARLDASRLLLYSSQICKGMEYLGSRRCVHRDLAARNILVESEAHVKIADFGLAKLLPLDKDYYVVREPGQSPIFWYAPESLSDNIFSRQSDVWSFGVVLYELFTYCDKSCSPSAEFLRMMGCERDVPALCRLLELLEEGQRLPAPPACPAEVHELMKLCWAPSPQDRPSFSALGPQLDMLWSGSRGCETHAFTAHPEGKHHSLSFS
assay_name: JAK3 Inhibition Assay (Omnia kinase fluorescence peptide substrate assay)
Type: biochemical
measurement_context: averaged IC50 ranges; assay of Example D; 10 μM (Km app) or 1 mM ATP, 2.5 nM JAK3
property_label: IC50

| molecule | assay_value |
| --- | --- |
| Cn1cc(-c2cc3nccn3c(-c3cnn(C4(CC#N)CN(S(=O)(=O)C5CCCCC5)C4)c3)n2)cn1 | > 1000 nM |
| CC(C)n1cc(-c2cc3nccn3c(-c3cnn(C4(CC#N)CN(CC(F)(F)F)C4)c3)n2)cn1 | > 1000 nM |
| Cn1cc(-c2cc3nccn3c(-c3cnn(C(CC#N)c4ccc(Cl)cc4)c3)n2)cn1 (centres unmarked) | 100 to 1000 nM |
| Cn1cc(-c2cc3nccn3c(-c3cnn(C4(CC#N)CN(S(=O)(=O)CCC(F)(F)F)C4)c3)n2)cn1 | > 1000 nM |
| Cn1cc(-c2cc3nccn3c(-c3cnn(C4(CC#N)CCN(CC(F)(F)F)CC4)c3)n2)cn1 | > 1000 nM |
| C[Si](C)(C)CCOCn1cc(-c2cc3nccn3c(-c3cnn(C(CC#N)C4CC4)c3)n2)cn1 (centres unmarked) | 100 to 1000 nM |

**Q:** Query: IC50; subject: Cn1cc(-c2cc3nccn3c(-c3cnn(C(CC#N)c4cccc(C(F)(F)F)c4)c3)n2)cn1 (centres unmarked)
**A:** 100 to 1000 nM

**Q:** Another molecule: CC(C)Cn1cc(-c2cc3nccn3c(-c3cnn(C(CC#N)C4CC4)c3)n2)cn1 (centres unmarked)
**A:** > 1000 nM
